# ASSAY PROCEDURE: in vitro
# EXPERIMENTAL PARAMETERS: human, THP1 cells, Cell viability (Fig. S7a)
# Protocol: Cell viability was measured by cell counting kit-8 (TargetMol) according to the manufacturer’s instructions. Supplementary Fig. 2. […] (e-g) THP1 cells (e), L929 cells (f) and RAW264.7 cells (g) were exposed to the indicated doses of XQ2 for 48h, the cell viability was measured by CCK8 assay. Data are representative of three independent experiments in (a-g). […] Supplementary Fig. 7. […] The cell viability was measured by CCK8 assay. […]
Square brackets hold non-standard residues; d marks the D form. Peptide text beside a SMILES is read from it.
MEASURE: viability at 48 h, 200 µM (%)
One number for each entry, in %.

Short answer for CC(C)C[C@@H]1NC(=O)[C@H](CCCNC(=N)N)NC(=O)[C@H](C(C)C)NC(=O)[C@@H]2CCCN2C(=O)[C@@H](Cc2ccccc2)NC(=O)[C@H](CC(C)C)NC(=O)[C@H](CCCNC(=N)N)NC(=O)[C@H]([C@@H](C)O)NC(=O)[C@H](C)NC(=O)[C@@H](Cc2ccccc2)NC1=O [XQ2B] (cyclo([dF]ATRL[dF]PVRL)) : viability at 48 h, 200 µM was 3.63

The reported measurements were obtained from paper PMC10545747.
